Tested on: NTMT1
TEST: MALDI-MS methyltransferase activity assay, NTMT1
Format: biochemical, human
APPLIED CONDITIONS: 2 μM NTMT1, 10 μM peptide, 200 μM SAM, 25 mM Tris–HCl pH 7.5, 50 mM KCl, 37 °C, overnight
ASSAY READOUT: Trimethylated fraction (%)
Respond numerically; units are % and should not be typed.

Task: Lookup: Trimethylated fraction / NTMT1 / YPKRIA [synthetic XPKRIA hexapeptide substrate, X = Y]
Result: 0.00

Task: Lookup: Trimethylated fraction / NTMT1 / EPKRIA [synthetic XPKRIA hexapeptide substrate, X = E]
Result: 0.00

Task: Lookup: Trimethylated fraction / NTMT1 / DPKRIA [synthetic XPKRIA hexapeptide substrate, X = D]
Result: 0.00

Task: Lookup: Trimethylated fraction / NTMT1 / IPKRIA [synthetic XPKRIA hexapeptide substrate, X = I]
Result: 0.00

Task: Lookup: Trimethylated fraction / NTMT1 / FPKRIA [synthetic XPKRIA hexapeptide substrate, X = F]
Result: 2.66

Task: Lookup: Trimethylated fraction / NTMT1 / RPKRIA [synthetic XPKRIA hexapeptide substrate, X = R]
Result: 1.76

Task: Lookup: Trimethylated fraction / NTMT1 / TPKRIA [synthetic XPKRIA hexapeptide substrate, X = T]
Result: 0.00

Task: Lookup: Trimethylated fraction / NTMT1 / PPKRIA [synthetic XPKRIA hexapeptide substrate, X = P]
Result: 0.00

Task: Lookup: Trimethylated fraction / NTMT1 / HPKRIA [synthetic XPKRIA hexapeptide substrate, X = H]
Result: 0.00

Task: Lookup: Trimethylated fraction / NTMT1 / CPKRIA [synthetic XPKRIA hexapeptide substrate, X = C]
Result: 0.00

Task: Lookup: Trimethylated fraction / NTMT1 / LPKRIA [synthetic XPKRIA hexapeptide substrate, X = L]
Result: 2.94

Task: Lookup: Trimethylated fraction / NTMT1 / APKRIA [synthetic XPKRIA hexapeptide substrate, X = A]
Result: 100.00

Task: Lookup: Trimethylated fraction / NTMT1 / WPKRIA [synthetic XPKRIA hexapeptide substrate, X = W]
Result: 0.00

Task: Lookup: Trimethylated fraction / NTMT1 / QPKRIA [synthetic XPKRIA hexapeptide substrate, X = Q]
Result: 0.00

Task: Lookup: Trimethylated fraction / NTMT1 / MPKRIA [synthetic XPKRIA hexapeptide substrate, X = M]
Result: 8.74

Task: Lookup: Trimethylated fraction / NTMT1 / NPKRIA [synthetic XPKRIA hexapeptide substrate, X = N]
Result: 0.00
